system: SW 1573; assay: relative viability (nuclei count vs DMSO), 5 days (fraction); higher = more cells survive; conditions: first compound 0.8 µM
measured property: relative viability
The reply should be a number, written without any unit.

[ask] Consider the compound Nc1cccc2c1CN(C1CCC(=O)NC1=O)C2=O (centres undefined) [Lenalidomide] + Nc1ncn([C@H]2C[C@H](O)[C@@H](CO)O2)c(=O)n1 [Decitabine] (partner 2 µM) and give its measured relative viability.
[reply] 0.625

[ask] Further, for Nc1cccc2c1CN(C1CCC(=O)NC1=O)C2=O (centres undefined) [Lenalidomide] + C[C@]1(O)C[C@@H](c2nc(-c3ccc4ccc(-c5ccccc5)nc4c3)c3c(N)nccn32)C1 [Linsitinib] (partner 1 µM) ?
[reply] 0.866

[ask] Further, for Nc1cccc2c1CN(C1CCC(=O)NC1=O)C2=O (centres undefined) [Lenalidomide] + CC1(C)CCC(c2ccc(Cl)cc2)=C(CN2CCN(c3ccc(C(=O)NS(=O)(=O)c4ccc(N[C@H](CCN5CCOCC5)CSc5ccccc5)c(S(=O)(=O)C(F)(F)F)c4)cc3)CC2)C1 [Navitoclax] (partner 0.5 µM) ?
[reply] 0.911

[ask] Further, for Nc1cccc2c1CN(C1CCC(=O)NC1=O)C2=O (centres undefined) [Lenalidomide] + Cc1nc(Nc2ncc(C(=O)Nc3c(C)cccc3Cl)s2)cc(N2CCN(CCO)CC2)n1 [Dasatinib] (partner 0.075 µM) ?
[reply] 0.547

Where these numbers come from: the supplement of paper PMC10307832
